test system: LXRa:RXRa (NR concentration 270 nM, RXRa partner concentration 90 nM); assay: PBM binding z-score (relative to random genomic background probes); higher = stronger binding; sequences stand for … in GC…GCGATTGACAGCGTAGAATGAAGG
// PBM binding z-score lookup, one value per entry
Kindly provide the number alone.

For orientation, consider the following solved cases.
{"columns": ["seq.text", "assay.result"],
 "data": [
  ["CGAACTAGGTGAAAGGACAGTGAAAGGCGACGTA", -0.418],
  ["CAAACTAGGTCAAAGGTCAAGGTCGAGCCAACCA", 7.09],
  ["CAAAATAGGTCAAGGTCAAAGTCGGTTTGTGCCA", 5.98],
  ["ACTAGTTGCTCAGCTGAGGTCACACACAATTCGG", 2.94],
  ["CTAAGTAGGTTAAGGGGGTCATTCAGTTTGAAAG", 4.96]
]}

Now, please, on to the next sequence.
**Query** Supply recorded PBM binding z-score for CCGACTGGGGCAAAGGTTACGATACTCAGTACGA here.
**Result** 1.6
